- TARGET UNDER TEST: UniProt:Q62848
- Sequence (Q62848 whole entry): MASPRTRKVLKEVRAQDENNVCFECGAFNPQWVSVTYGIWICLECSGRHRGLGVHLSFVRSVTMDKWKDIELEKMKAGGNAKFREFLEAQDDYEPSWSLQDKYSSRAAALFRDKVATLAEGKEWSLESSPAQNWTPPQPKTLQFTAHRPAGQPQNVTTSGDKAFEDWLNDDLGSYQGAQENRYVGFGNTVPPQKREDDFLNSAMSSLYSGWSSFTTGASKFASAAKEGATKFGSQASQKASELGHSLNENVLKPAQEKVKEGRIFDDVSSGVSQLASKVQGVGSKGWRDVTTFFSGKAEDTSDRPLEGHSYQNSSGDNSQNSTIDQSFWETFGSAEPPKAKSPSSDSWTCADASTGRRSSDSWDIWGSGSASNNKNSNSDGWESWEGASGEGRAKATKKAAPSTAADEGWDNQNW
- PROCEDURE TEXT: Inhibition of poly-histidine tagged full-length rat ARFGAP1 expressed in Sf9 cells assessed as remaining enzyme activity at 20 uM using purified WT ARF1 pre-loaded with [gamm-32P]-labeled GTP incubated for 5 mins before ARF1-GTP addition followed by 25 mins incubation by scintillation counting method
READOUT TYPE: Activity (%)

Solved cases (3 shown):
c1ccc(-c2ccc(Cn3cnc4c(NCc5cccc6ccccc56)nc(Oc5ccc6c(c5)OCO6)nc43)cc2)cc1 : 34
COc1cccc(Oc2nc(NCc3cccc4ccccc34)c3ncn(Cc4ccc(-c5ccccc5)cc4)c3n2)c1 : 29
COc1cccc(Oc2nc(N[C@H](CO)Cc3ccccc3)c3ncn(Cc4ccc(-c5ccccc5)cc4)c3n2)c1 : 29

A = OC[C@H](Cc1ccccc1)Nc1nc(Oc2ccc3c(c2)OCO3)nc2c1ncn2Cc1ccc(-c2ccccc2)cc1
B = COC(=O)[C@H](Cc1ccccc1)Nc1nc(Oc2ccc3c(c2)OCO3)nc2c1ncn2Cc1ccc(-c2ccccc2)cc1
Query string: Recorded Activity values differ for A and B ; which one is higher? Identify your selection by its label.
Result string: A
